Values were extracted from ChEMBL document CHEMBL1201862.

Entries annotated with measured GI50
System: MDA-MB-435
protocol-description: NCI tumour cell line growth inhibition, 48 h
The source made the active and inactive calls. Rule as the data show it: active = GI50 up to about 1.1 µM and inactive = higher.

# compound, GI50
rows = [
    ("CC1(C)OC(=O)CC12CCN(Cc1ccccc1)CC2", "> 100 µM (inactive)"),
    ("Brc1ccccc1/C=N\\C12CC3CC(CC(C3)C1)C2", "8.47 µM (inactive)"),
    ("CCON1CC(C(=O)OC)=C(O)C1=O", "> 100 µM (inactive)"),
    ("CC(=O)Oc1ccc2c3c1[C@H]1O[C@H]1c1cccc(c1-3)[C@@H]1O[C@H]21", "2.04 µM (inactive)"),
    ("CCCC[C@@H]1CCN2C[C@@H](O)[C@@H](O)[C@H]2[C@@H]1O", "> 100 µM (inactive)"),
    ("Cc1nc2ccc(NC3OC(CO)C(O)C(O)C3O)cc2c(=O)n1-c1ccccc1 (stereo unspecified)", "> 100 µM (inactive)"),
]

----------
Entries annotated with measured GI50
System: DMS-114
protocol-description: NCI tumour cell line growth inhibition, 48 h
The source made the active and inactive calls. Rule as the data show it: active = GI50 up to about 1.1 µM and inactive = higher.

# compound, test-system, GI50
data = [
    ("O=Cc1ccccc1CCn1c(=O)c2cc3c(=O)n(CCc4ccccc4C=O)c(=O)c3cc2c1=O", "DMS-114", "> 100 µM (inactive)"),
    ("Cc1ccc([N+](=O)[O-])cc1NC(=O)/C(CC(=O)c1sc(C(N)=S)nc1C)=N\\N", "DMS-114", "30.3 µM (inactive)"),
    ("N/N=C(\\CCN1CCCC1)CC(c1ccccc1)c1c(O)c2ccccc2oc1=O (stereo unspecified)", "DMS-114", "> 100 µM (inactive)"),
    ("Nc1nc2c(c(=O)[n-]1)[n+](CCO)cn2C1OC(CO)C(O)C1O (stereo unspecified)", "DMS-114", "> 100 µM (inactive)"),
    ("Brc1ccccc1/C=N\\C12CC3CC(CC(C3)C1)C2", "DMS-114", "5.77 µM (inactive)"),
    ("Cc1cccc(C(C)(C)C)c1NC(=O)CCc1n[nH]c(=S)o1", "DMS-114", "43.3 µM (inactive)"),
    ("CCOC(=O)c1c(/C=N\\Nc2ccccc2)nc2ccccc2c1-c1ccccc1", "DMS-114", "41.6 µM (inactive)"),
    ("NC(=O)c1csc(C2C=CC(CO)O2)n1 (stereo unspecified)", "DMS-114", "> 100 µM (inactive)"),
    ("CCCNCCCCC(NC(C)=O)C(=O)NCc1ccccc1 (stereo unspecified)", "DMS-114", "> 100 µM (inactive)"),
    ("Cc1cc2c(C)n[nH]c2c(C(=O)O)c1C", "DMS-114", "> 100 µM (inactive)"),
    ("O=CN1CCN(C=S)CC1", "DMS-114", "> 100 µM (inactive)"),
]

----------
Entries annotated with measured GI50
System: SR
protocol-description: NCI tumour cell line growth inhibition, 48 h
Active and inactive are the calls of the source. No stated cut-off is given here; in the data, active = GI50 up to about 1.1 µM and inactive = higher.

# compound, GI50
records = [
    ("C=C(C(=C)P(=S)(C(C)C)C(C)C)P(=S)(C(C)C)C(C)C", "> 100 µM (inactive)"),
    ("C[N+](C)([O-])Cc1cccc(NC(=O)c2ccc(C(=O)Nc3cccc(C[N+](C)(C)[O-])c3)cc2)c1", "> 100 µM (inactive)"),
    ("CC(C)(CO)CNc1cc(Cl)nc(N)n1", "> 100 µM (inactive)"),
    ("CC(C)CC(CNC(Cc1ccc(Cl)cc1)C(N)=O)NC(=O)C(Cc1c[nH]cn1)NC(=O)CNC(=O)C(NC(=O)C(C)NC(=O)C(Cc1c[nH]c2ccccc12)NC(=O)C(CCC(=O)O)NC(=O)C(N)Cc1ccccc1)C(C)C (centres undefined)", "> 133 µM (inactive)"),
    ("O=C1C2CC(Cl)C(SSC3CC4C(=O)N(SC(Cl)(Cl)C(Cl)Cl)C(=O)C4CC3Cl)CC2C(=O)N1SC(Cl)(Cl)C(Cl)Cl (centres undefined)", "0.229 µM (active)"),
    ("COC(=O)C1=C(O)c2cc(-c3ccccc3)c(-c3ccccc3)c(C#N)c2NC(=O)C1", "2.96 µM (inactive)"),
    ("CN(C)c1n/c(=N/c2ccc3ccccc3c2)ss1", "11.6 µM (inactive)"),
    ("Cc1occ2c1C(=O)CC1C2[C@@H](O)CC2C(C)(C)CCC[C@]12C (some centres undefined)", "67.5 µM (inactive)"),
    ("COc1cc(/C=C2/SC(c3ccccc3)N(c3ccccc3Cl)C2=O)cc(OC)c1OC (centres undefined)", "23.8 µM (inactive)"),
    ("Cc1ccc(S(=O)(=O)NNC(=O)Nc2ccc(Cl)cc2)cc1", "> 100 µM (inactive)"),
    ("COc1ccc2c[n+](C)c3c4cc(OC)c(OC)cc4ccc3c2c1", "2.87 µM (inactive)"),
    ("CCOc1cc(NC(C)=O)ccc1C(=O)NN1C(=O)CSC1c1ccc(O)c(OC)c1 (centres undefined)", "50.9 µM (inactive)"),
    ("Cc1ccccc1C1CC(c2ccccc2)=NO1 (centres undefined)", "> 100 µM (inactive)"),
    ("Cc1cccc(NC(=O)CC(=O)N2N=C(N3c4ccccc4Sc4ccccc43)CC2c2ccccc2)c1 (centres undefined)", "> 100 µM (inactive)"),
    ("COC(=O)[C@@H]1C(=O)O[C@@H](c2cc(OC)c(OC)cc2OC)[C@@H]1C(=O)OC.COC(=O)[C@H]1C(=O)O[C@@H](c2cc(OC)c(OC)cc2OC)[C@@H]1C(=O)OC", "> 100 µM (inactive)"),
    ("C/C(CC(=O)NC1=CC=C(NC(=O)C/C(C)=N\\Nc2ccccc2)CC1)=N/Nc1ccccc1", "37.8 µM (inactive)"),
    ("CC1(C)CC(=O)c2c(nc3c(ccc4ccccc43)c2-c2ccc(NC(=O)CCCC(=O)Nc3ccc(-c4c5c(nc6c4ccc4ccccc46)CC(C)(C)CC5=O)cc3)cc2)C1", "> 100 µM (inactive)"),
    ("O=c1c2ccccc2nc2n1CCc1c-2[nH]c2cc3c(cc12)OCO3", "> 25 µM (inactive)"),
    ("CCCCn1cnc2c(SC)ncnc21", "3.45 µM (inactive)"),
]
